Provide the recorded protein stability index for the entries that follow.
B1: MIA2 (parent)
chain: NSISSDKEATVPCTEILTEKKDTI

Variants of: B1
Assay: protein stability index of a GFP-peptide fusion (GPS, HEK-293T) (PSI 1-6); higher = more stable;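 also: lentivirally expressed fusions sorted by FACS into six bins by GFP to DsRed ratio, PSI derived from sequencing read proportions per bin multiplied by bin number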
Settings: c terminus: a fixed tail appended
Give bare numbers.

Sample answers from the record:
>  <MUTANT NAME>
I24D

>  <protein stability index>
5.72

$$$$
>  <MUTANT NAME>
D22P

>  <protein stability index>
5.43

$$$$
>  <MUTANT NAME>
K20W

>  <protein stability index>
4.54

$$$$
>  <MUTANT NAME>
T18V

>  <protein stability index>
5.12

$$$$
>  <MUTANT NAME>
K21W

>  <protein stability index>
4.59

$$$$

For every item below, please supply its protein stability index.
1. I24K
2. E8P
3. L17I
4. I16N
5. T23L
6. P12A
7. K20A
8. P12M

Result ::
5.35
5.27
5.34
5.47
5.37
5.49
5.34
5.21

For every item below, please supply its protein stability index.
1. E8R
2. P12G
3. E19Y
4. A9R
5. C13F
6. T14E
7. L17A

Result ::
1: 5.74; 2: 5.53; 3: 5.06; 4: 5.23; 5: 5.28; 6: 5.49; 7: 5.8
